# measurement target: T1, human calcitonin receptor (human, UniProt P30988 25-474)
# T1 construct: whole, on cells; Assay used cell membranes of the transfected BHK cells; also called hCTR; hCT
# T1 sequence (looked up): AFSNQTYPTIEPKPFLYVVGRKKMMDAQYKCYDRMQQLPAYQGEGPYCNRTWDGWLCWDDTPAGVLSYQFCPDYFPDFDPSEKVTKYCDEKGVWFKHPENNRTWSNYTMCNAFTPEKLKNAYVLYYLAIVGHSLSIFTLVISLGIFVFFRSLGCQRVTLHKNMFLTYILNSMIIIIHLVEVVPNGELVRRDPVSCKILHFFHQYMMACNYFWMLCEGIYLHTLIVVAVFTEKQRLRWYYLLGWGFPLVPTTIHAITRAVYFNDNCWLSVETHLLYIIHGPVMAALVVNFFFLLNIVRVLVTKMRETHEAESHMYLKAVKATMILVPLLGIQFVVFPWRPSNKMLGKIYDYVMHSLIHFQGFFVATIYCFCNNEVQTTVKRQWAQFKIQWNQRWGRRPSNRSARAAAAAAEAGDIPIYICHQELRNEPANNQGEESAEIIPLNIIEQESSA
# protocol details: ratio IC50 hCTR / IC50 hAmylin-R of the two SPA competition assays; reference: human amylin receptor
reported endpoint: Ratio hCT/hAmylin binding
Would you mind answering with just the numeric figure?

binder: KCNTATCATQRLANFLRHSSPNFGAIPSSTNVGRNTY (C20 diacid-gGlu on the alpha amino group of the N-terminal residue (Lys1); disulfide Cys2-Cys7; C-terminal amide, Synthetic analogue; also called compound 39) [N^α1-[(4S)-4-carboxy-4-(19-carboxynonadecanoylamino)butanoyl]-[Arg17,Pro21,Pro27,Arg34]-h-amylin]
reported measurement: 29
--
binder: KCNTATCATQRLANFLRHSSPNFGAIPSSTNVGSNTY (C20 diacid-gGlu-2xOEG on the alpha amino group of the N-terminal residue (Lys1); disulfide Cys2-Cys7; C-terminal amide, Synthetic analogue; also called compound 24)
reported measurement: 90

Switching to the query record.
Which value of Ratio hCT/hAmylin binding has been reported for KCNTATCATQRLANFLRHSSPNFGAIPSSTNVGHNTY (C20 diacid-gGlu on the alpha amino group of the N-terminal residue (Lys1); disulfide Cys2-Cys7; C-terminal amide, Synthetic analogue; also called compound 40) [N^α1-[(4S)-4-carboxy-4-(19-carboxynonadecanoylamino)butanoyl]-[Arg17,Pro21,Pro27,His34]-h-amylin] in the records?
31.1
